Taken from patent US7842469B2.

# experiment summary: Quantum yield measurements
# Assay type: biochemical
# experimental setup: coelenterazine-cp
readout name: Quantum Yield (%) cp

molecule="C124A/A143M: RLuc mutant C124A/A143M (protein) MASKVYDPEQRKRMITGPQWWARCKQMNVLDSFINYYDSEKHAENAVIFLHGNAASSYLWRHVVPHIEPVARCIIPDLIGMGKSGKSGNGSYRLLDHYKYLTAWFELLNLPKKIIFVGHDWGAALAFHYSYEHQDKIKAIVHMESVVDVIESWDEWPDIEEDIALIKSEEGEKMVLENNFFVETMLPSKIMRKLEPEEFAAYLEPFKEKGEVRRPTLSWPREIPLVKGGKPDVVQIVRNYNAYLRASDDLPKMFIESDPGFFSNAIVEGAKKFPNTEFVKVKGLHFSQEDAPDEMGKYIKSFVERVLKNEQ" measured_number=4.8
